Quick list: EC50 per entry.
# EXPERIMENTAL SYSTEM: CHEK1 (CHK1) (Homo sapiens, UniProt O14757)
# Sequence (O14757 1-476): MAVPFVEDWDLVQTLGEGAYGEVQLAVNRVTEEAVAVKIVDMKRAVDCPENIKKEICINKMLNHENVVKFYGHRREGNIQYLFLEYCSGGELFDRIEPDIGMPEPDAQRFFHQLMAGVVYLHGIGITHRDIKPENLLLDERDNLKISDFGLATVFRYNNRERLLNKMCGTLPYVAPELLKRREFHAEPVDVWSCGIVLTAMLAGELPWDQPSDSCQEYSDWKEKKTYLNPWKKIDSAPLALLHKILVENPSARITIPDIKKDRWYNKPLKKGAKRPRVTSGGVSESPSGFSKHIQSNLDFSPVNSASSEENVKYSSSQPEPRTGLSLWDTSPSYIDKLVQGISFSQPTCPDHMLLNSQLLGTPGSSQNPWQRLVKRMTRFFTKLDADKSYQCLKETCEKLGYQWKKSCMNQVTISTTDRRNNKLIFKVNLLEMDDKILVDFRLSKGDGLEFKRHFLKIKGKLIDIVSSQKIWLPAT
# PROTOCOL NOTES: SelectScreen kinase specificity survey
# REPORTED CONDITIONS: estimated, abridged dose response curve, read-out: Kinase inhibitory activity EC50

[
  {
    "MOLECULE": "CCN(CC)CCNc1ccc2ncn3c4ccc(O)cc4c(=O)c1c23 [Symadex, reference compound]",
    "EC50": "> 5 µM"
  },
  {
    "MOLECULE": "CN(C)CCCNc1ccc2ncn3c4ccc5[nH]ncc5c4c(=O)c1c23 [Compound (IV)]",
    "EC50": "> 5 µM"
  }
]

* * *

# EXPERIMENTAL SYSTEM: UniProt:P49137
# PROTOCOL NOTES: SelectScreen kinase specificity survey
# REPORTED CONDITIONS: estimated, abridged dose response curve, read-out: Kinase inhibitory activity EC50
REPORTED ENDPOINT: EC50

[
  {
    "COMPOUND": "CN(C)CCCNc1ccc2ncn3c4ccc5[nH]ncc5c4c(=O)c1c23",
    "REPORTED ENDPOINT": "EC50",
    "ENDPOINT VALUE": "> 5 µM"
  },
  {
    "COMPOUND": "CCN(CC)CCNc1ccc2ncn3c4ccc(O)cc4c(=O)c1c23 [Symadex, reference compound]",
    "REPORTED ENDPOINT": "EC50",
    "ENDPOINT VALUE": "> 5 µM"
  }
]

* * *

# EXPERIMENTAL SYSTEM: FLT1 (VEGFR1) (Homo sapiens)
# Sequence (P17948 27-1338): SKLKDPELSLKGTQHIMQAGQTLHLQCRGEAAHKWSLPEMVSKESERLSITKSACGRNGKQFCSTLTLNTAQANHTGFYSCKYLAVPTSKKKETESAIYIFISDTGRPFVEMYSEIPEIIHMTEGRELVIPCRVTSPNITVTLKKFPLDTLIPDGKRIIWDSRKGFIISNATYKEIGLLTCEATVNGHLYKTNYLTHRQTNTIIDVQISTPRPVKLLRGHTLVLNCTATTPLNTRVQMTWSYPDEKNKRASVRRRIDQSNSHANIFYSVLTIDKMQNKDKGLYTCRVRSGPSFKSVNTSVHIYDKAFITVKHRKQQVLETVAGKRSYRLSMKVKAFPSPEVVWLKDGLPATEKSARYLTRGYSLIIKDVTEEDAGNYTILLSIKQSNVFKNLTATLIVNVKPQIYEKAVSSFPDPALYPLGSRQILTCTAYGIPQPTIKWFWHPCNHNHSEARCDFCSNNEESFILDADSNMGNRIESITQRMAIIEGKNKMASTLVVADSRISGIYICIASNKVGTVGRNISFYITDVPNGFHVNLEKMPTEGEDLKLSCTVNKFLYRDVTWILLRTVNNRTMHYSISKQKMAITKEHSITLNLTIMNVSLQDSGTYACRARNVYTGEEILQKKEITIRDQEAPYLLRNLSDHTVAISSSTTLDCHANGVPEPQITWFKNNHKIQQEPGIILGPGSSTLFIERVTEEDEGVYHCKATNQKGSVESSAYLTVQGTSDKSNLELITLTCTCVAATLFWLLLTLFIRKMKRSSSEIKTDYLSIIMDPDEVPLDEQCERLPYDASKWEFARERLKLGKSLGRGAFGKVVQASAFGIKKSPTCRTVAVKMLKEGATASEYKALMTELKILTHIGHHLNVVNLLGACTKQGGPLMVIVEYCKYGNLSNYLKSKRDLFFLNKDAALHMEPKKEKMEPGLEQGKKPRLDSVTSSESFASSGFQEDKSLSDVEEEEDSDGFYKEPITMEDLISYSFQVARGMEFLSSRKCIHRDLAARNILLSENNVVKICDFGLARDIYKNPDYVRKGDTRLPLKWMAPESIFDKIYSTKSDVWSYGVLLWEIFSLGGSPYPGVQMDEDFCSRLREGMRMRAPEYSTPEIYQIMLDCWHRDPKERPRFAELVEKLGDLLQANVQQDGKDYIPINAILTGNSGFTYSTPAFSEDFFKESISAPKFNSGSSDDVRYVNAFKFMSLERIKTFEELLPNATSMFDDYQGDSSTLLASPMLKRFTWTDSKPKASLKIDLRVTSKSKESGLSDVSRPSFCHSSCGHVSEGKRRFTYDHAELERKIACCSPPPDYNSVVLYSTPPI
# PROTOCOL NOTES: SelectScreen kinase specificity survey
# REPORTED CONDITIONS: estimated, abridged dose response curve, read-out: Kinase inhibitory activity EC50
Quick list: EC50 per entry.
REPORTED ENDPOINT: EC50

[
  {
    "COMPOUND": "CCN(CC)CCNc1ccc2ncn3c4ccc(O)cc4c(=O)c1c23 [Symadex, reference compound]",
    "ENDPOINT VALUE": "> 5 µM"
  },
  {
    "COMPOUND": "CN(C)CCCNc1ccc2ncn3c4ccc5[nH]ncc5c4c(=O)c1c23 [Compound (IV)]",
    "ENDPOINT VALUE": "> 5 µM"
  }
]

* * *

# EXPERIMENTAL SYSTEM: ROCK2 (Homo sapiens, UniProt O75116)
# Construct: purchased Invitrogen (SelectScreen platform)
# Sequence (O75116 whole entry): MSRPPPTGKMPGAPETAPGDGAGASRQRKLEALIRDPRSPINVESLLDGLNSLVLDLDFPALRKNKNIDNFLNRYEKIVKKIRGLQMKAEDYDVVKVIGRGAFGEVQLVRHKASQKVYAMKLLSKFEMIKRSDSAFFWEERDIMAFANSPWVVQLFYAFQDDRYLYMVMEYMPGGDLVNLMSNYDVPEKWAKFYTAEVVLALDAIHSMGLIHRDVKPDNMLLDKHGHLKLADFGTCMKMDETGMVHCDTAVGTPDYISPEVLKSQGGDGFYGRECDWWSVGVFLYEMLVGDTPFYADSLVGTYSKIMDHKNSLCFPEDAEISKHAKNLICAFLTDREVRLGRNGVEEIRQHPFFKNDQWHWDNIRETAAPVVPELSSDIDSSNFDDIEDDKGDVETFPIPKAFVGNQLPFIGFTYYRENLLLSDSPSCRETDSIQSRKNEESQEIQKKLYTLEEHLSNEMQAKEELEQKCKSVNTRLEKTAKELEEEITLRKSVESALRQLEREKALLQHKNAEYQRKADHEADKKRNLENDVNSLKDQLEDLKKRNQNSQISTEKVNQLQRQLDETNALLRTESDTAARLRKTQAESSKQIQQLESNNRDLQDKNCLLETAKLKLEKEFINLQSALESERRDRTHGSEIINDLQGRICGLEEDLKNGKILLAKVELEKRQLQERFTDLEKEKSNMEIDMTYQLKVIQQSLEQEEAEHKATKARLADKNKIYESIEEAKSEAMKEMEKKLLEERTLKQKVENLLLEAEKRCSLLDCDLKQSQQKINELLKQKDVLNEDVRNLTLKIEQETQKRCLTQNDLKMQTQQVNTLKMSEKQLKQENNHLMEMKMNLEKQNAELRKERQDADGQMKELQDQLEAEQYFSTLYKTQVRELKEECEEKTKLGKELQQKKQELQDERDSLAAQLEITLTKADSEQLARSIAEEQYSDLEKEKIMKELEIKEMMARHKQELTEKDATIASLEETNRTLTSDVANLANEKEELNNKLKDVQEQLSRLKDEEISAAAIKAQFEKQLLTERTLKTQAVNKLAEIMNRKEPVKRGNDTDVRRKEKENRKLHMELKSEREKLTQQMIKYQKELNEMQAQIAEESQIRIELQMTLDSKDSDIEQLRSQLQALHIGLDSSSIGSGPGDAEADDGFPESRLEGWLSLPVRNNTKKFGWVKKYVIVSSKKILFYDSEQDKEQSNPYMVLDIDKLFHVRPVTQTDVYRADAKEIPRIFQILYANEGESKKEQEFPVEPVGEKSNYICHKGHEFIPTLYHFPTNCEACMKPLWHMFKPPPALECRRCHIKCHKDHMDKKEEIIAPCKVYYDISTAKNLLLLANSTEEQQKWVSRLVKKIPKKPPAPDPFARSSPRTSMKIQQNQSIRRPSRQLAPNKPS
# PROTOCOL NOTES: SelectScreen kinase specificity survey
# Format: biochemical
# REPORTED CONDITIONS: estimated, abridged dose response curve, read-out: Kinase inhibitory activity EC50

[
  {
    "COMPOUND": "CCN(CC)CCNc1ccc2ncn3c4ccc(O)cc4c(=O)c1c23 [Symadex, reference compound]",
    "QUALIFYING SIGN": ">",
    "EC50 (nM)": 5000
  },
  {
    "COMPOUND": "CN(C)CCCNc1ccc2ncn3c4ccc5[nH]ncc5c4c(=O)c1c23",
    "QUALIFYING SIGN": "=",
    "EC50 (nM)": 963
  }
]

* * *

# EXPERIMENTAL SYSTEM: CAMK1D (CaMKI delta) (Homo sapiens)
# PROTOCOL NOTES: SelectScreen kinase specificity survey
# REPORTED CONDITIONS: estimated, abridged dose response curve, read-out: Kinase inhibitory activity EC50
Quick list: EC50 per entry.
REPORTED ENDPOINT: EC50 (µM)

[
  {
    "COMPOUND": "CCN(CC)CCNc1ccc2ncn3c4ccc(O)cc4c(=O)c1c23 [Symadex, reference compound]",
    "REPORTED ENDPOINT": "EC50",
    "ENDPOINT VALUE": 4
  },
  {
    "COMPOUND": "CN(C)CCCNc1ccc2ncn3c4ccc5[nH]ncc5c4c(=O)c1c23",
    "REPORTED ENDPOINT": "EC50",
    "ENDPOINT VALUE": 2.78
  }
]

* * *

# EXPERIMENTAL SYSTEM: RPS6KA4 (MSK2) (Homo sapiens, UniProt O75676)
# Sequence (O75676 whole entry): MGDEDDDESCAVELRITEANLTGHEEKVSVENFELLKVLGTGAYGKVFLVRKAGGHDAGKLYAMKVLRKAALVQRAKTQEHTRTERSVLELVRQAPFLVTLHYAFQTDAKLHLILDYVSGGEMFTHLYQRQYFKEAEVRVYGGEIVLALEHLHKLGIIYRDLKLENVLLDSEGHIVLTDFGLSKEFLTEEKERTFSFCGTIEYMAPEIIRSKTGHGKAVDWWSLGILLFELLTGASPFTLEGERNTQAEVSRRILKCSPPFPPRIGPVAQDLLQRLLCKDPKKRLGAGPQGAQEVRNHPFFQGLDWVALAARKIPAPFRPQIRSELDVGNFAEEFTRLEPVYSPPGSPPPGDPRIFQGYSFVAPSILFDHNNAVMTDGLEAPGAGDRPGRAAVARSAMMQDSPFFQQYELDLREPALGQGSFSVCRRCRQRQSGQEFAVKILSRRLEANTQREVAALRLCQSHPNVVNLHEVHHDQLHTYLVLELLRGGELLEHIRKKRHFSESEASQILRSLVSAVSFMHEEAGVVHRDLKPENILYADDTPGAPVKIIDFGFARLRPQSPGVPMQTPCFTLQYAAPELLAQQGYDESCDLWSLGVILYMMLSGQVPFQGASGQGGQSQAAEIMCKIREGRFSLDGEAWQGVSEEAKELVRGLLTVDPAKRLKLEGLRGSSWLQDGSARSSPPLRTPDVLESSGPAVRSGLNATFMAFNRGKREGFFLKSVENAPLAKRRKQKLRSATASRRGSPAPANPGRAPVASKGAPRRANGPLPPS
# PROTOCOL NOTES: SelectScreen kinase specificity survey
# REPORTED CONDITIONS: estimated, abridged dose response curve, read-out: Kinase inhibitory activity EC50
pEC50: −log10 of the molar value.

[
  {
    "MOLECULE": "CCN(CC)CCNc1ccc2ncn3c4ccc(O)cc4c(=O)c1c23 [Symadex, reference compound]",
    "pEC50": "< 5.30"
  },
  {
    "MOLECULE": "CN(C)CCCNc1ccc2ncn3c4ccc5[nH]ncc5c4c(=O)c1c23",
    "pEC50": "< 5.30"
  }
]

* * *

Quick list: pEC50 per entry.
# EXPERIMENTAL SYSTEM: BMX (Homo sapiens, UniProt P51813)
# PROTOCOL NOTES: SelectScreen kinase specificity survey
# REPORTED CONDITIONS: estimated, abridged dose response curve, read-out: Kinase inhibitory activity EC50
pEC50: −log10 of the molar value.

[
  {
    "COMPOUND": "CCN(CC)CCNc1ccc2ncn3c4ccc(O)cc4c(=O)c1c23 [Symadex, reference compound]",
    "QUALIFYING SIGN": "<",
    "pEC50": 5.30
  },
  {
    "COMPOUND": "CN(C)CCCNc1ccc2ncn3c4ccc5[nH]ncc5c4c(=O)c1c23",
    "QUALIFYING SIGN": "=",
    "pEC50": 5.49
  }
]

* * *

Quick list: EC50 per entry.
# EXPERIMENTAL SYSTEM: PRKCN (PKD3, PRKD3) (Homo sapiens, UniProt O94806)
# Sequence (O94806 whole entry): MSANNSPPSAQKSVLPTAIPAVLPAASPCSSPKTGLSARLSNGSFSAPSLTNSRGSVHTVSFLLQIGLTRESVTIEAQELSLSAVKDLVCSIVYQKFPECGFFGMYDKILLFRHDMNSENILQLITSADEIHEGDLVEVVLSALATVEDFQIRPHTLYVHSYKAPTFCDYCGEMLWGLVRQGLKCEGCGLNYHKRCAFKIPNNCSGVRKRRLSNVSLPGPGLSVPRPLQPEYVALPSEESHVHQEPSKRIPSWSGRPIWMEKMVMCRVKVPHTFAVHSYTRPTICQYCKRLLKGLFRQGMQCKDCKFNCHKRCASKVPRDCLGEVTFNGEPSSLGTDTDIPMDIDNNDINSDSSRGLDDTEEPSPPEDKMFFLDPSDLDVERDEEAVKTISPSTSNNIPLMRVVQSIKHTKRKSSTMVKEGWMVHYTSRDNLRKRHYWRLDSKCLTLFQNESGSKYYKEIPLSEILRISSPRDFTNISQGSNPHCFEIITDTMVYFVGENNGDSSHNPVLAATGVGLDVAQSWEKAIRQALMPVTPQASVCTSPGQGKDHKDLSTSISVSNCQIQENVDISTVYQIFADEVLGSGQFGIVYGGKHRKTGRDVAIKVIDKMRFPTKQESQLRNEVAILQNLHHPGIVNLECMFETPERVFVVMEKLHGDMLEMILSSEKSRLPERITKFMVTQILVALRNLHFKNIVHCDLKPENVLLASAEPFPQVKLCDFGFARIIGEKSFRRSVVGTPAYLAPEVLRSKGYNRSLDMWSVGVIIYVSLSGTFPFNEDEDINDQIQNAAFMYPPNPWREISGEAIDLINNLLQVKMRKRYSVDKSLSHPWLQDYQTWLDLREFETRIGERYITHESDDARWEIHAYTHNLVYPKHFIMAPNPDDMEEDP
# PROTOCOL NOTES: SelectScreen kinase specificity survey
# REPORTED CONDITIONS: estimated, abridged dose response curve, read-out: Kinase inhibitory activity EC50

[
  {
    "MOLECULE": "CCN(CC)CCNc1ccc2ncn3c4ccc(O)cc4c(=O)c1c23 [Symadex, reference compound]",
    "EC50 (nM)": 221
  },
  {
    "MOLECULE": "CN(C)CCCNc1ccc2ncn3c4ccc5[nH]ncc5c4c(=O)c1c23",
    "EC50 (nM)": 302
  }
]

* * *

# EXPERIMENTAL SYSTEM: UniProtKB P49841
# PROTOCOL NOTES: SelectScreen kinase specificity survey
# REPORTED CONDITIONS: estimated, abridged dose response curve, read-out: Kinase inhibitory activity EC50
pEC50: −log10 of the molar value.
REPORTED ENDPOINT: pEC50

[
  {
    "COMPOUND": "CCN(CC)CCNc1ccc2ncn3c4ccc(O)cc4c(=O)c1c23 [Symadex, reference compound]",
    "EXPERIMENTAL SYSTEM": "UniProtKB P49841",
    "ENDPOINT VALUE": "< 5.30"
  },
  {
    "COMPOUND": "CN(C)CCCNc1ccc2ncn3c4ccc5[nH]ncc5c4c(=O)c1c23",
    "EXPERIMENTAL SYSTEM": "UniProtKB P49841",
    "ENDPOINT VALUE": "< 5.30"
  }
]

* * *

Quick list: pEC50 per entry.
# EXPERIMENTAL SYSTEM: PRKCB2 (PKC beta II) (Homo sapiens, UniProt P05771)
# Sequence (P05771 1-673 isoform P05771-2): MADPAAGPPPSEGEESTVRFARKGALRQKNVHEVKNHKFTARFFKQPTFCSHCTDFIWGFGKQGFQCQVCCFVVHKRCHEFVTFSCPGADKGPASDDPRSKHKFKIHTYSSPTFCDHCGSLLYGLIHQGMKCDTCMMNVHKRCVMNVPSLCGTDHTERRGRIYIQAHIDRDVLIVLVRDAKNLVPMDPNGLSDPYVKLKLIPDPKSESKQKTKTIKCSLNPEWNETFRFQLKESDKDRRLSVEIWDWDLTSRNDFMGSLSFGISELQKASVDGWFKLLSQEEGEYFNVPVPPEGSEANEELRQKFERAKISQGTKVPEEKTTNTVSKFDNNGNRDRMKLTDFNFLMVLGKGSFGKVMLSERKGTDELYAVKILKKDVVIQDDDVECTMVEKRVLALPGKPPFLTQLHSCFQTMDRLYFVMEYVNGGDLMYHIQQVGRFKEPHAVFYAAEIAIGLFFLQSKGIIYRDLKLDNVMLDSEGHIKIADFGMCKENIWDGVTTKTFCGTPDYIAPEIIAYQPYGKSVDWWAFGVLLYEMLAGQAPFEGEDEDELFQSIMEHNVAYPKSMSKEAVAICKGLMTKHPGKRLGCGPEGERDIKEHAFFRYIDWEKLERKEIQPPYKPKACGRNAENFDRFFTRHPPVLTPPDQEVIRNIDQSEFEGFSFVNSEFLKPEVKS
# PROTOCOL NOTES: SelectScreen kinase specificity survey
# REPORTED CONDITIONS: estimated, abridged dose response curve, read-out: Kinase inhibitory activity EC50
pEC50: −log10 of the molar value.

[
  {
    "COMPOUND": "CCN(CC)CCNc1ccc2ncn3c4ccc(O)cc4c(=O)c1c23 [Symadex, reference compound]",
    "pEC50": "< 5.30"
  },
  {
    "COMPOUND": "CN(C)CCCNc1ccc2ncn3c4ccc5[nH]ncc5c4c(=O)c1c23 [Compound (IV)]",
    "pEC50": "< 5.30"
  }
]
